# ASSAY_SUMMARY: Flash point of solvents, closed cup method
# Type: physicochemical
Below, each entry is listed alongside its reported flash point.
MEASUREMENT_KIND: flash point (°C)

MOLECULE: OCc1ccccc1 [benzyl alcohol]
ASSAY_VALUE: 100.6
--
MOLECULE: CC(O)CO (centres unmarked) [propylene glycol]
ASSAY_VALUE: 99
--
MOLECULE: CC(C)O [isopropyl alcohol]
ASSAY_VALUE: 11.7
--
MOLECULE: C=C(C)[C@H]1CC=C(C)CC1 [dipentene]
ASSAY_VALUE: 46
--
MOLECULE: CCO [ethyl alcohol]
ASSAY_VALUE: 14
